- Tested on: EKVX (NSC lung cancer)
- assay.method.text: NCI-60 screen (SRB, 48 h)
- protocol.conditions: Homo sapiens, 48 h, read-out: TGI
measure: IC (TGI) (µM)

molecule=C=C(C)[C@@H]1CCC=C2CC[C@]3(C)[C@H](CC[C@@H]4[C@@]5(C)CCCNC(C)(C)[C@@H]5CC[C@]43C)[C@H]21 observed_result=3.21
molecule=CC1(C)CC[C@]2(CO)CC[C@]3(C)C(=CC[C@@H]4[C@@]5(C)CCCNC(C)(C)[C@@H]5CC[C@]43C)[C@@H]2C1 observed_result=20.1
molecule=CC(C)=C1CCC=C2CC[C@]3(C)[C@H](CC[C@@H]4[C@@]5(C)CCCNC(C)(C)[C@@H]5CC[C@]43C)[C@H]21 observed_result=3.38
molecule=Cc1ccc(S(=O)(=O)OC[C@]23CCC(C)(C)C[C@H]2C2=CC[C@@H]4[C@@]5(C)CCCNC(C)(C)[C@@H]5CC[C@@]4(C)[C@]2(C)CC3)cc1 observed_result=2.96
molecule=C=C(C)[C@@H]1CC[C@]2(C)[C@H](C=CC3=C4C[C@@](C)(CO)CC[C@]4(C)CC[C@]32C)[C@@]1(C)CCCN observed_result=3.1
molecule=CC1(C)NCCC[C@]2(C)[C@H]3C=CC4=C5C[C@@](C)(CO)CC[C@]5(C)CC[C@@]4(C)[C@]3(C)CC[C@@H]12 observed_result=8.27
molecule=Cc1ccc(S(=O)(=O)OC[C@@]2(C)CC[C@]3(C)CC[C@]4(C)C(=C3C2)C=C[C@@H]2[C@@]3(C)CCCNC(C)(C)[C@@H]3CC[C@]24C)cc1 observed_result=3.29
molecule="C=C(C)C1CCC2(CO)CCC3(C)C(CCC4C5(C)CCCNC(C)(C)C5CCC43C)C12 (centres unmarked)" observed_result=3.03

* * *

Notes on GI50 obtained with Breast cancer subpanel.
measure: GI50 (nM)

compound_string=C=C(C)[C@@H]1CC[C@]2(C)[C@H](C=CC3=C4C[C@@](C)(CO)CC[C@]4(C)CC[C@]32C)[C@@]1(C)CCCN observed_result=1680
compound_string=CC1(C)CC[C@]23CC[C@]4(C)[C@H](CC[C@@H]5[C@@]6(C)CCCNC(C)(C)[C@@H]6CC[C@]54C)[C@H]2[C@H]1OC3 observed_result=1680
compound_string=C=C(C)[C@@H]1CC[C@]2(C(=O)N[C@H](CO)Cc3ccccc3)CC[C@]3(C)[C@H](CC[C@@H]4[C@@]5(C)CCCNC(C)(C)[C@@H]5CC[C@]43C)[C@@H]12 observed_result=1410

* * *

GI50 tested on SK-MEL-28 (Melanoma): recorded values
measure: GI50 (nM)

compound="Cc1ccc(S(=O)(=O)OC[C@@]2(C)CC[C@]3(C)CC[C@]4(C)C(=C3C2)C=C[C@@H]2[C@@]3(C)CCCNC(C)(C)[C@@H]3CC[C@]24C)cc1 [Compound 16]" observed_result=1770
compound="C=C(C)[C@@H]1CC[C@]2(C(=O)N[C@H](CO)Cc3ccccc3)CC[C@]3(C)[C@H](CC[C@@H]4[C@@]5(C)CCCNC(C)(C)[C@@H]5CC[C@]43C)[C@@H]12 [Compound 11]" observed_result=1550
compound="C[C@H]1[C@H](C)CC[C@]2(C(=O)Nc3ccc4ncccc4c3)CC[C@]3(C)C(=CC[C@@H]4[C@@]5(C)CCCNC(C)(C)[C@@H]5CC[C@]43C)[C@H]12 [Compound 14]" observed_result=1660
compound="Cc1ccc(S(=O)(=O)OC[C@]23CCC(C)(C)C[C@H]2C2=CC[C@@H]4[C@@]5(C)CCCNC(C)(C)[C@@H]5CC[C@@]4(C)[C@]2(C)CC3)cc1 [Compound 15]" observed_result=1840
compound="CC1(C)CC[C@]23CC[C@]4(C)[C@H](CC[C@@H]5[C@@]6(C)CCCNC(C)(C)[C@@H]6CC[C@]54C)[C@H]2[C@H]1OC3 [Compound 7, Azepanoallobetulin]" observed_result=1660
